The reported measurements were obtained from patent US7329651B2.

- Target desc: CB2 receptor (Mus musculus, UniProt P47936)
- Construct: membranes were prepared from frozen mouse spleen; from tissue; host or cells: mouse spleen
- Sequence (P47936 whole entry): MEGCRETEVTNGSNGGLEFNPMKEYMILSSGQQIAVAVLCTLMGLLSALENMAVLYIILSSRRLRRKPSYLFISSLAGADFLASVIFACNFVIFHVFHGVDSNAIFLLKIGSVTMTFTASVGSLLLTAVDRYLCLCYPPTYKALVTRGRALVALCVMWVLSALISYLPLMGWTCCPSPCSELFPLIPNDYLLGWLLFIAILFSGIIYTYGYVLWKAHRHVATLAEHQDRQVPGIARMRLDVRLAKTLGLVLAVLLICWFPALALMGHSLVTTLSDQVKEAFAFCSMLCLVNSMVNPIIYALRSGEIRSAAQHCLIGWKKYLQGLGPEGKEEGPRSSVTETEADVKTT
- Protocol details: biochemical
- Type: binding
- Run conditions: mouse spleen membranes, [3H] CP-55,940; read-out: Ki(nM) CB2
Assay readout: Ki (nM)
Number in nM, nothing else.

Q) Please look up its Ki: CCCOC(=O)C1=NN(c2ccccc2)C(C(=O)OCCC)=NN1c1ccccc1
A) 23.3

Q) Query CCOC(=O)C1=NN(c2cccc3ccccc23)C(C(=O)OCC)=NN1c1cccc2ccccc12 next
A) 1910

Q) Please answer likewise for CCOC(=O)C1=NN(c2cccc3ccccc23)C(C(=O)OCC)=NN1c1ccccc1
A) 182

Q) Proceed to COC(=O)C1=NN(c2ccccc2)C(C(=O)OC)=NN1c1ccccc1
A) 381

----------
- Target desc: CB2 receptor (Mus musculus)
- Construct: membranes were prepared from frozen mouse spleen; from tissue; host or cells: mouse spleen
- Protocol details: biochemical
- Format: binding
- Run conditions: ratio of CB1 Ki to CB2 Ki
Please go through the items and note down their Selectivity for CB2.
Field format: numeric only.

Q) Tell me the measured Selectivity for CB2 of CNC(=O)C1=NN(c2ccccc2)C(C(=O)NC)=NN1c1ccccc1 , please.
A) 1

Q) What would you report for CCOC(=O)C1=NN(c2ccc(OC)cc2)C(C(=O)OCC)=NN1c1ccc(OC)cc1 ?
A) 64

Q) Another compound to look at: O=C(C1=NN(c2ccccc2)C(C(=O)N2CCCCC2)=NN1c1ccccc1)N1CCCCC1
A) 42

Q) Request: CCOC(=O)C1=NN(c2ccccc2)C(C(C)=O)=NN1c1ccccc1
A) 24

Q) Please answer likewise for CC(CO)NC(=O)C1=NN(c2ccccc2)C(C(=O)NC(C)CO)=NN1c1ccccc1 (stereo not drawn)
A) 1

Q) // repeat for CCOC(=O)C1=NN(c2ccccc2)C(C(=O)N2CCCCC2)=NN1c1ccccc1 and report
A) 20

Q) Can you handle CCOC(=O)C1=NN(c2ccc(Cl)cc2)C(C(=O)OCC)=NN1c1ccc(Cl)cc1 next?
A) 4.3

Q) // next record CCOC(=O)C1=NN(c2ccccc2)C(C(=O)OCC)=NN1c1ccccc1
A) 88

Q) # iterate: CCOC(=O)C1=NN(c2cccc3ccccc23)C(C(=O)OCC)=NN1c1ccccc1
A) 40

Q) Now the compound CCOC(=O)C1=NN(c2ccccc2)C(C(=O)NC2CC3CC(C2C)C3(C)C)=NN1c1ccccc1 (stereo not drawn)
A) 2.6

Q) Queued: CCOC(=O)C1=NN(c2ccc(Cl)cc2)C(C(=O)OCC)=NN1c1ccccc1
A) 34

Q) Now the same for CC(=O)C1=NN(c2ccccc2)C(C(C)=O)=NN1c1ccccc1
A) 1

Q) Query CC1C(NC(=O)C2=NN(c3ccccc3)C(C(=O)NC3CC4CC(C3C)C4(C)C)=NN2c2ccccc2)CC2CC1C2(C)C (stereo not drawn) next
A) 1

Q) Please give the result for CCNC(=O)C1=NN(c2ccccc2)C(C(=O)NCC)=NN1c1ccccc1 too.
A) 1

Q) Also CCOC(=O)C1=NN(C(=O)c2ccccc2)C(C(=O)OCC)=NN1C(=O)c1ccccc1 ?
A) 1

Q) Same lookup for COC(=O)C1=NN(c2ccccc2)C(C(=O)OC)=NN1c1ccccc1 , please.
A) 81

Q) Same read-out for CCOC(=O)C1=NN(c2ccc(Br)cc2)C(C(=O)OCC)=NN1c1ccc(Cl)cc1 ?
A) 18

Q) Also, CCOC(=O)C1=NN(c2ccc(Cl)cc2Cl)C(C(=O)OCC)=NN1c1ccc(Cl)cc1Cl please.
A) 1

Q) Record: CCOC(=O)C1=NN(c2cccc3ccccc23)C(C(=O)OCC)=NN1c1cccc2ccccc12
A) 524

Q) // next record CCCOC(=O)C1=NN(c2ccccc2)C(C(=O)OCCC)=NN1c1ccccc1
A) 27

Q) // repeat for NC(=O)C1=NN(c2ccccc2)C(C(N)=O)=NN1c1ccccc1 and report
A) 1

----------
Provide the recorded Ki for the entries that follow.
- Target desc: CB2 receptor (Mus musculus)
- Construct: membranes were prepared from frozen mouse spleen; from tissue; host or cells: mouse spleen
- Protocol details: biochemical
- Assay type: binding
- Run conditions: mouse spleen membranes, [3H] CP-55,940; read-out: Ki(nM) CB2
- Description: The prepared cannabinoid compounds were tested for CB2 receptor binding affinity and for CB1 receptor affinity (to determine selectivity for the CB2 receptor). […] The treated membranes were subsequently used in the binding assay described below. […] Radioactivity was detected using MicroScint 20 scintillation cocktail added directly to the dried filterplates, and the filterplates were counted using a Packard Instruments Top-Count. Nonspecific binding was assessed using 100 nM CP-55,940. […]
Provide only the numeric value, understood in nM.

Q) Item under review: CCOC(=O)C1=NN(c2ccccc2)C(C(C)=O)=NN1c1ccccc1 [compound 12] . Reported Ki?
A) 327

Q) Lookup CCOC(=O)C1=NN(c2ccccc2)C(C(=O)OCC)=NN1c1ccccc1 [compound 2]
A) 19

Q) # iterate: CCOC(=O)C1=NN(c2ccccc2)C(C(=O)N2CCCCC2)=NN1c1ccccc1 [compound 13]
A) 255

Q) Record: CCOC(=O)C1=NN(c2ccc(OC)cc2)C(C(=O)OCC)=NN1c1ccc(OC)cc1 [compound 18]
A) 72

----------
- Target desc: CB1 cannabinoid receptor (Rattus norvegicus)
- Construct: membranes were prepared from rat forebrain membranes; from tissue; host or cells: rat forebrain
- Protocol details: CB1 receptor binding, [3H] CP-55,940 displacement, rat forebrain membranes
- Run conditions: rat forebrain membranes, 0.8 nM [3H] CP-55,940; read-out: Ki(nM) CB1
Assay readout: Ki (nM)
# number only, unit nM dropped from output

Q) Query (molecule): CCOC(=O)C1=NN(c2ccccc2)C(C(=O)N2CCCCC2)=NN1c1ccccc1 ; field requested: Ki
A) 5040

Q) And for CNC(=O)C1=NN(c2ccccc2)C(C(=O)NC)=NN1c1ccccc1 ?
A) 66000

Q) Would you mind doing O=C(C1=NN(c2ccccc2)C(C(=O)N2CCCCC2)=NN1c1ccccc1)N1CCCCC1 as well?
A) 9990

----------
- Target desc: CB1 cannabinoid receptor (Rattus norvegicus, UniProt P20272)
- Construct: membranes were prepared from rat forebrain membranes; from tissue; host or cells: rat forebrain
- Sequence (P20272 whole entry): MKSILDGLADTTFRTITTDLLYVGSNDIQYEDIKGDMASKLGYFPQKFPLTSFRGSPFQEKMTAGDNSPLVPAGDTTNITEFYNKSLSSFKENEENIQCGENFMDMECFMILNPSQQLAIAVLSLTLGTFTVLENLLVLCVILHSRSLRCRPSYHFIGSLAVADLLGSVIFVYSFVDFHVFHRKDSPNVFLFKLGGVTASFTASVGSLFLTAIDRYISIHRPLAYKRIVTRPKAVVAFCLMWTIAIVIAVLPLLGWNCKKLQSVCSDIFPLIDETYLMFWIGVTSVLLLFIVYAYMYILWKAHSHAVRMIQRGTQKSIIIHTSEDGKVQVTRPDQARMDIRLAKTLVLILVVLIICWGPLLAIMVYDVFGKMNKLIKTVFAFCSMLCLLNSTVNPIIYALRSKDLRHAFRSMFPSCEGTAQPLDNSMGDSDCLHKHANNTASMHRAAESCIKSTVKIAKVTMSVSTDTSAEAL
- Protocol details: CB1 receptor binding, [3H] CP-55,940 displacement, rat forebrain membranes
- Protocol: The prepared cannabinoid compounds were tested for CB2 receptor binding affinity and for CB1 receptor affinity (to determine selectivity for the CB2 receptor). […] The treated membranes were subsequently used in the binding assay described below. […] Radioactivity was detected using MicroScint 20 scintillation cocktail added directly to the dried filterplates, and the filterplates were counted using a Packard Instruments Top-Count. Nonspecific binding was assessed using 100 nM CP-55,940. […]
Could you please report measured Ki for the items listed next?
Write it as a number; the unit µM goes unstated.

Q) Reported Ki for CB1 cannabinoid receptor (Rattus norvegicus, UniProt P20272), given CC1C(NC(=O)C2=NN(c3ccccc3)C(C(=O)NC3CC4CC(C3C)C4(C)C)=NN2c2ccccc2)CC2CC1C2(C)C (stereo not drawn) [compound 11] ?
A) 100

Q) Also check CCOC(=O)C1=NN(c2ccccc2)C(C(=O)NC2CC3CC(C2C)C3(C)C)=NN1c1ccccc1 (stereo not drawn) [compound 14]
A) 2.05

Q) Now this one: CCOC(=O)C1=NN(c2ccc([N+](=O)[O-])cc2)C(C(=O)OCC)=NN1c1ccc([N+](=O)[O-])cc1 [compound 15]
A) 100

----------
- Target desc: CB1 cannabinoid receptor (Rattus norvegicus)
- Construct: membranes were prepared from rat forebrain membranes; from tissue; host or cells: rat forebrain
- Protocol details: CB1 receptor binding, [3H] CP-55,940 displacement, rat forebrain membranes
- Run conditions: rat forebrain membranes, 0.8 nM [3H] CP-55,940; read-out: Ki(nM) CB1
Assay readout: log10(Ki) (log10 of the value in nM)
Short version: log10 scale, Ki, nM.

Q) Query: log10(Ki); subject: CC(=O)C1=NN(c2ccccc2)C(C(C)=O)=NN1c1ccccc1 [compound 4]
A) 4.00

Q) Would you kindly repeat that for CCCOC(=O)C1=NN(c2ccccc2)C(C(=O)OCCC)=NN1c1ccccc1 [compound 3] ?
A) 2.79

Q) What would you report for CCOC(=O)C1=NN(C(=O)c2ccccc2)C(C(=O)OCC)=NN1C(=O)c1ccccc1 [compound 21] ?
A) 5.00

Q) Then what about the compound CCOC(=O)C1=NN(c2ccc(Cl)cc2Cl)C(C(=O)OCC)=NN1c1ccc(Cl)cc1Cl [compound 19] ?
A) 4.00

Q) Now this one: CCOC(=O)C1=NN(c2cccc3ccccc23)C(C(=O)OCC)=NN1c1cccc2ccccc12 [compound 20]
A) 6.00

Q) // next record NC(=O)C1=NN(c2ccccc2)C(C(N)=O)=NN1c1ccccc1 [compound 5]
A) 4.00

Q) One more compound: CCOC(=O)C1=NN(c2ccc(Br)cc2)C(C(=O)OCC)=NN1c1ccc(Cl)cc1 [compound 23]
A) 2.73

Q) Thanks! And CCOC(=O)C1=NN(c2ccccc2)C(C(C)=O)=NN1c1ccccc1 [compound 12] ?
A) 3.89

Q) Further, for COC(=O)C1=NN(c2ccccc2)C(C(=O)OC)=NN1c1ccccc1 [compound 1] ?
A) 4.49

Q) // query: CCNC(=O)C1=NN(c2ccccc2)C(C(=O)NCC)=NN1c1ccccc1 [compound 7]
A) 5.00

Q) // same read-out, input: CC(CO)NC(=O)C1=NN(c2ccccc2)C(C(=O)NC(C)CO)=NN1c1ccccc1 (centres unmarked) [compound 10]
A) 5.00

Q) Now give it for CCOC(=O)C1=NN(c2ccc(OC)cc2)C(C(=O)OCC)=NN1c1ccc(OC)cc1 [compound 18] too.
A) 3.66

Q) Could you do the same for CCOC(=O)C1=NN(c2ccc(Br)cc2)C(C(=O)OCC)=NN1c1ccc(Br)cc1 [compound 17] , please?
A) 2.54

Q) Same read-out for CCOC(=O)C1=NN(c2ccc(Cl)cc2)C(C(=O)OCC)=NN1c1ccc(Cl)cc1 [compound 16] ?
A) 2.32
